- system.name: UniProt:O43683
- Sequence (O43683 whole entry): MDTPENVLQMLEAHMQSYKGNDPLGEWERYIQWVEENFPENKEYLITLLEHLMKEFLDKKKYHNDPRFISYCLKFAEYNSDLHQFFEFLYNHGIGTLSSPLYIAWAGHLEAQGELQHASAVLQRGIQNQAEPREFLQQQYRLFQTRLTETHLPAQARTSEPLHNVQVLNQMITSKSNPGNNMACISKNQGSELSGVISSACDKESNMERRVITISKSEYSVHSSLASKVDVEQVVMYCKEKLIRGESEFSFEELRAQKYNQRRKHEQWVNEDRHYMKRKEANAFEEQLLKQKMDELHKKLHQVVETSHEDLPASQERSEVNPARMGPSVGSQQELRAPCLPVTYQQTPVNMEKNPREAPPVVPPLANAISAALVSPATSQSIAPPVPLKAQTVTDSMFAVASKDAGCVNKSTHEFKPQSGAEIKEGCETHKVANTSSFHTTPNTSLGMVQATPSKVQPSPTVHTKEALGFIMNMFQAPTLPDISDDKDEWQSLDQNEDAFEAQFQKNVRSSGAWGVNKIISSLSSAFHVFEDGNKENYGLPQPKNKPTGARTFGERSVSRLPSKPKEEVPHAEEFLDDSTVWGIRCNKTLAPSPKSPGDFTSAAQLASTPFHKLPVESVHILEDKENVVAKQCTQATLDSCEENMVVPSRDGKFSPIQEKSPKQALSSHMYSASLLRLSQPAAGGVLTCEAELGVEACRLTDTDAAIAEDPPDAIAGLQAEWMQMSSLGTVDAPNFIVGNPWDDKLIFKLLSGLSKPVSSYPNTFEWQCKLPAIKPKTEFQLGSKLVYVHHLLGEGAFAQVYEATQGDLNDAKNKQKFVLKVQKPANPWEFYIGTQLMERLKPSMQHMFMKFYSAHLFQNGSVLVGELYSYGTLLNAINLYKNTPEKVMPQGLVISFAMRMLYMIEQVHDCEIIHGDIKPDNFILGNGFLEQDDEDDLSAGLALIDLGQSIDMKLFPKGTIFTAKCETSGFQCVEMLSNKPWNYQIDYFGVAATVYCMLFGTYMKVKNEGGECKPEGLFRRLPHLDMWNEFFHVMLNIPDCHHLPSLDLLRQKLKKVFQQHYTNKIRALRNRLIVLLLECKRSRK
- assay.method.text: Kinase panel profiling at 1 µmol/L (MSA or IMAP), percentage inhibition
- Format: biochemical
- condition.description: BUB1/BUB3 kinase assay; 1 µmol/L single concentration; read-out: %-inhibition BUB1/BUB3
Provide the recorded inhibition at 1 µM for the entries that follow.
Give bare numbers, in %.

INSERT INTO results (query_smiles, experimental_result) VALUES
  ('C[C@H](Nc1ncnc2nc[nH]c12)c1cc2cccc(Cl)c2c(=O)n1-c1ccccc1', -3.41),
  ('CO[C@]1(C(=O)N[C@@H](C)c2ccc(-n3cc(F)cn3)nc2)CC[C@H](c2nc(C)cc(Nc3cc(C)[nH]n3)n2)CC1', -0.908),
  ('Cn1cc(-c2cc3c(N4CCN(c5ncc([C@@](C)(N)c6ccc(F)cc6)cn5)CC4)ncnn3c2)cn1', 4),
  ('Cn1cnc2c(F)c(Nc3ccc(Br)cc3F)c(C(=O)NOCCO)cc21', -3.43);

# batch: return inhibition at 1 µM for each of the 3 molecules below
1. COc1ccc(CN2C3CC2CN(c2ccc(-c4cc(OCC(C)(C)O)cn5ncc(C#N)c45)cn2)C3)cn1
2. CN1CCN(c2ccc(C(=O)Nc3n[nH]c4ccc(Cc5cc(F)cc(F)c5)cc34)c(NC3CCOCC3)c2)CC1
3. FC(F)(F)c1ccc(CNc2ccc(Cc3c[nH]c4ncc(Cl)cc34)cn2)cn1

19
-5.38
5.7

---

- system.name: UniProt:P48730
- Sequence (P48730 whole entry): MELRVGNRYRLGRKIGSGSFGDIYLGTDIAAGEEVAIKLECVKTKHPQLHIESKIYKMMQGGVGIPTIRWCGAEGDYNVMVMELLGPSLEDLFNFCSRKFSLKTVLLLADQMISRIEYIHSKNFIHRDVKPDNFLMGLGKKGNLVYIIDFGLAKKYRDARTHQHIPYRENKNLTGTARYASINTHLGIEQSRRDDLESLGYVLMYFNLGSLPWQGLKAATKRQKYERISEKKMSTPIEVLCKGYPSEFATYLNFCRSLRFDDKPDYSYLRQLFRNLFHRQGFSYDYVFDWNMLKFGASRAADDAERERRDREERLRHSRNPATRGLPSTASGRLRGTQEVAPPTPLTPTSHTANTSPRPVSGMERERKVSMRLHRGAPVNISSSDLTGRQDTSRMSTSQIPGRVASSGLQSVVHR
- assay.method.text: Kinase panel profiling at 1 µmol/L (MSA or IMAP), percentage inhibition
- Type: biochemical
- condition.description: kinase CK1δ; 1 µmol/L single concentration; read-out: %-inhibition at 1 µmol/L, CK1δ
outcome.measure: inhibition at 1 µM (%)
Give bare numbers, in %.

Below are worked cases with known answers.
INSERT INTO measurements (query_smiles, experimental_result) VALUES
  ('CN1CCN(c2ccc(C(=O)Nc3n[nH]c4ccc(Cc5cc(F)cc(F)c5)cc34)c(NC3CCOCC3)c2)CC1', -5),
  ('CCN1C(=O)N(c2c(F)c(OC)cc(OC)c2F)Cc2cnc3[nH]c(CN4CCOCC4)cc3c21', -4.55),
  ('COc1ccc(CN2C3CC2CN(c2ccc(-c4cc(OCC(C)(C)O)cn5ncc(C#N)c45)cn2)C3)cn1', -1.7),
  ('CCn1c(=O)c(-c2cc(NC(=O)Nc3ccccc3)c(F)cc2Br)cc2cnc(NC)cc21', -8),
  ('CCc1nc(C(N)=O)c(Nc2ccc(N3CCC(N4CCN(C)CC4)CC3)c(OC)c2)nc1NC1CCOCC1', 25);

# batch: return inhibition at 1 µM for each of the 2 molecules below
1. COc1cc2ncnc(Nc3ccc(F)c(Cl)c3)c2cc1NC(=O)/C=C/CN1CCCCC1
2. C[C@H]1Oc2cc(cnc2N)-c2c(nn(C)c2C#N)CN(C)C(=O)c2ccc(F)cc21

1: -6.63; 2: -6.46

---

- system.name: panel of 255 wild-type kinases (Homo sapiens, UniProt P54762)
- Sequence (P54762 18-984): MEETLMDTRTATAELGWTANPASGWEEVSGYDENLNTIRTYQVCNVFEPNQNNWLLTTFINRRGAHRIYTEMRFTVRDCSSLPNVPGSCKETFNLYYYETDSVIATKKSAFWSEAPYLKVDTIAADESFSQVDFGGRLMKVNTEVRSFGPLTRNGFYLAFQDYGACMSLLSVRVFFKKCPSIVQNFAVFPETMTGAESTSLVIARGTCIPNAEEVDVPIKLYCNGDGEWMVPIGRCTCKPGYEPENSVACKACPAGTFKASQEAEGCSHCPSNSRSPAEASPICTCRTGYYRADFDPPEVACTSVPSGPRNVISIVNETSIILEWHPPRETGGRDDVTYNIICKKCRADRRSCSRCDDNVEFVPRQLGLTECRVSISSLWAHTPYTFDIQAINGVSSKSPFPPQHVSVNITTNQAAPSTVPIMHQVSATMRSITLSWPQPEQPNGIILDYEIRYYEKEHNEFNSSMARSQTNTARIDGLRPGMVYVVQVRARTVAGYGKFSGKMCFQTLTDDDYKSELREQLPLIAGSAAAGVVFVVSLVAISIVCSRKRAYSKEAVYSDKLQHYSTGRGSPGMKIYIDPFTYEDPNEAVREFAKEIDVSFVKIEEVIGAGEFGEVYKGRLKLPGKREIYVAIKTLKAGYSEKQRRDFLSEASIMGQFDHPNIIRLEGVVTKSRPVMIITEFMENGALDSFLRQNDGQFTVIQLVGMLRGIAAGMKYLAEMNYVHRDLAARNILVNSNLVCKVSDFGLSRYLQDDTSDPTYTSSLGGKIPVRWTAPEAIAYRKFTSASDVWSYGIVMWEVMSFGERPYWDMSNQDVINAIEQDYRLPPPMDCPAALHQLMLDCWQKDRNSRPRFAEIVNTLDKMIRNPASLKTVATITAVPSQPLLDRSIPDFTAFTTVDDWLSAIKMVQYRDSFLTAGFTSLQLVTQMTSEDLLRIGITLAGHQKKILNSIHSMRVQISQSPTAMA
- assay.method.text: Kinase panel profiling at 1 µmol/L (MSA or IMAP), percentage inhibition
- Format: biochemical
- condition.description: kinase EPHB1; 1 µmol/L single concentration; read-out: %-inhibition at 1 µmol/L, EPHB1
Provide the recorded inhibition at 1 µM for the entries that follow.
One number for each entry, in %.

INSERT INTO assay_data (compound, experimental_result) VALUES
  ('C[C@H](Nc1ncnc2nc[nH]c12)c1cc2cccc(Cl)c2c(=O)n1-c1ccccc1 [duvelisib]', 10);

# batch: return inhibition at 1 µM for each of the 2 compounds below
1. C=CC(=O)N1CCC([C@@H]2CCNc3c(C(N)=O)c(-c4ccc(Oc5ccccc5)cc4)nn32)CC1 [zanubrutinib]
2. COc1ccc(CN2C3CC2CN(c2ccc(-c4cc(OCC(C)(C)O)cn5ncc(C#N)c45)cn2)C3)cn1 [selpercatinib]

1. -2
2. 98

---

- system.name: UniProtKB Q16832
- Sequence (Q16832 22-855): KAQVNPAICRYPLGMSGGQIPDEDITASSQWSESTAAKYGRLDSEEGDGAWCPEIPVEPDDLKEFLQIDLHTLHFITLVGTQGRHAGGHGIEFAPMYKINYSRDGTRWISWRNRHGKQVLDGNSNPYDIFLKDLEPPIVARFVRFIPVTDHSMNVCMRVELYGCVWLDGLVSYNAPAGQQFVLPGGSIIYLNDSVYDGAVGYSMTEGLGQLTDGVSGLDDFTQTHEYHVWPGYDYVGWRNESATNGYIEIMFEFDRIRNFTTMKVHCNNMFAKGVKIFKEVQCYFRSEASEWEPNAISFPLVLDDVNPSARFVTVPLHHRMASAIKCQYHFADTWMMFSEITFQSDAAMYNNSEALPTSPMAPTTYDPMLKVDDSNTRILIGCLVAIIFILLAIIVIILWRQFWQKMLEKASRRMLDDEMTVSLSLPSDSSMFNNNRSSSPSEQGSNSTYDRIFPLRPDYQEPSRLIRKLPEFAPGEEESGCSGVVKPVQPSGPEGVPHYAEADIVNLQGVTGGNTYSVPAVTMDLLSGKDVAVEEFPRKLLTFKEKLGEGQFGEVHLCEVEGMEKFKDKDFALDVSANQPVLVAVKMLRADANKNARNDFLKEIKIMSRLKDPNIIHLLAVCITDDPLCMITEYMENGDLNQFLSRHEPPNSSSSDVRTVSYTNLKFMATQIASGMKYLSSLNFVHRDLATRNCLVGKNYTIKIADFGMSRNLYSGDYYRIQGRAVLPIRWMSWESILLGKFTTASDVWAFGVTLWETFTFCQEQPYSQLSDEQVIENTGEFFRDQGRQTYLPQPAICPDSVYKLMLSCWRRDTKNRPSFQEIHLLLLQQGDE
- assay.method.text: Kinase panel profiling at 1 µmol/L (MSA or IMAP), percentage inhibition
- Assay type: biochemical
- condition.description: kinase DDR2; 1 µmol/L single concentration; read-out: %-inhibition at 1 µmol/L, DDR2
Provide the recorded inhibition at 1 µM for the entries that follow.
One number for each entry, in %.

Below are worked cases with known answers.
INSERT INTO assay_data (molecule, system_name, experimental_result) VALUES
  ('COc1cc2ncnc(Nc3ccc(F)c(Cl)c3)c2cc1NC(=O)/C=C/CN1CCCCC1 [dacomitinib]', 'UniProtKB Q16832', 93),
  ('C[C@H](Nc1ncnc2nc[nH]c12)c1cc2cccc(Cl)c2c(=O)n1-c1ccccc1 [duvelisib]', 'UniProtKB Q16832', 8),
  ('Cn1cnc2c(F)c(Nc3ccc(Br)cc3F)c(C(=O)NOCCO)cc21 [binimetinib]', 'UniProtKB Q16832', -10),
  ('CO[C@]1(C(=O)N[C@@H](C)c2ccc(-n3cc(F)cn3)nc2)CC[C@H](c2nc(C)cc(Nc3cc(C)[nH]n3)n2)CC1 [pralsetinib]', 'UniProtKB Q16832', 102),
  ('COc1ccc(CN2C3CC2CN(c2ccc(-c4cc(OCC(C)(C)O)cn5ncc(C#N)c45)cn2)C3)cn1 [selpercatinib]', 'UniProtKB Q16832', 73);

# batch: return inhibition at 1 µM for each of the 7 molecules below
1. COC(=O)N[C@@H](C)CNc1nccc(-c2cn(C(C)C)nc2-c2cc(Cl)cc(NS(C)(=O)=O)c2F)n1 [encorafenib]
2. CCN1C(=O)N(c2c(F)c(OC)cc(OC)c2F)Cc2cnc3[nH]c(CN4CCOCC4)cc3c21 [pemigatinib]
3. C[C@H]1Oc2cc(cnc2N)-c2c(nn(C)c2C#N)CN(C)C(=O)c2ccc(F)cc21 [lorlatinib]
4. CCc1nc(C(N)=O)c(Nc2ccc(N3CCC(N4CCN(C)CC4)CC3)c(OC)c2)nc1NC1CCOCC1 [gilteritinib]
5. CCn1c(=O)c(-c2cc(NC(=O)Nc3ccccc3)c(F)cc2Br)cc2cnc(NC)cc21 [ripretinib]
6. CCN1CCN(c2ccc(Nc3cc(N(C)C(=O)Nc4c(Cl)c(OC)cc(OC)c4Cl)ncn3)cc2)CC1 [infigratinib]
7. CN1CCN(c2ccc(C(=O)Nc3n[nH]c4ccc(Cc5cc(F)cc(F)c5)cc34)c(NC3CCOCC3)c2)CC1 [entrectinib]

-7
5
21
99
98
63
100

# batch: return inhibition at 1 µM for each of the 3 molecules below
1. C=CC(=O)N1CCC([C@@H]2CCNc3c(C(N)=O)c(-c4ccc(Oc5ccccc5)cc4)nn32)CC1 [zanubrutinib]
2. FC(F)(F)c1ccc(CNc2ccc(Cc3c[nH]c4ncc(Cl)cc34)cn2)cn1 [pexidartinib]
3. Cn1cnc2c(F)c(Nc3ccc(Br)cc3Cl)c(C(=O)NOCCO)cc21 [selumetinib]

1. -3.23
2. 90
3. -0.119

---

Provide the recorded inhibition at 1 µM for the entries that follow.
- system.name: panel of 255 wild-type kinases (Homo sapiens)
- assay.method.text: Kinase panel profiling at 1 µmol/L (MSA or IMAP), percentage inhibition
- Format: biochemical
- condition.description: PAK4; 1 µmol/L single concentration; read-out: %-inhibition, PAK4
Entry format: amount then unit.

INSERT INTO assay_data (query_smiles, experimental_result) VALUES
  ('CCN1CCN(c2ccc(Nc3cc(N(C)C(=O)Nc4c(Cl)c(OC)cc(OC)c4Cl)ncn3)cc2)CC1', '6%'),
  ('Cn1cnc2c(F)c(Nc3ccc(Br)cc3Cl)c(C(=O)NOCCO)cc21', '4.6%'),
  ('C[C@H]1Oc2cc(cnc2N)-c2c(nn(C)c2C#N)CN(C)C(=O)c2ccc(F)cc21', '1.84%'),
  ('O=C(Nc1cnn2ccc(N3CCC[C@@H]3c3cc(F)ccc3F)nc12)N1CC[C@H](O)C1', '-4.61%'),
  ('Cc1nc(NC(=O)N2CCC[C@H]2C(N)=O)sc1-c1ccnc(C(C)(C)C(F)(F)F)c1', '0.0966%');

# batch: return inhibition at 1 µM for each of the 3 compounds below
1. COc1cc2ncnc(Nc3ccc(F)c(Cl)c3)c2cc1NC(=O)/C=C/CN1CCCCC1
2. COC(=O)N[C@@H](C)CNc1nccc(-c2cn(C(C)C)nc2-c2cc(Cl)cc(NS(C)(=O)=O)c2F)n1
3. CCn1c(=O)c(-c2cc(NC(=O)Nc3ccccc3)c(F)cc2Br)cc2cnc(NC)cc21

["-3.66%", "-2.13%", "0.34%"]

---

Provide the recorded IC50 for the entries that follow.
- Tested on: 134 cancer cell lines
- assay.method.text: Cell viability assay (ATPlite, 72 hours), IC50 on cancer cell line panel
- condition.description: Homo sapiens, A 172, read-out: IC50 in cell proliferation assay

INSERT INTO assay_data (query_smiles, outcome_measure, experimental_result) VALUES
  ('CNC(=O)c1ccc(-c2cnc3ncc(Cc4ccc5ncccc5c4)n3n2)cc1F', 'IC50', '> 31.6 µM');

Now take the following compound into account.
What IC50 value was documented for this compound, CC#CC(=O)N1CCC[C@H]1c1nc(-c2ccc(C(=O)Nc3ccccn3)cc2)c2c(N)nccn12 ?
> 31.6 µM
